Assign Papp A→B at 2 h, 2 μM to each entry below.
test: MDCK-II assay (cell monolayer assay); format: in vitro ADME; conditions: dog; MDCK-II monolayer; 2 μM peptide; apical side to basolateral side; 37° C., 5% CO2, 2 hours; repeated three times; read-out: Papp
Quick reminder: number only, in ×10⁻⁶ cm/s, skip the unit.

Consider the molecule shown here: CC(=O)NC(C(=O)N[C@@H](C)C(=O)NCc1ccccc1)C(F)(F)F (stereo partly drawn) What is its recorded Papp A→B at 2 h, 2 μM?
3.26

Consider the molecule shown here: CC(=O)NC(C(=O)N[C@@H](Cc1ccccc1)C(=O)NCC(C)C)C(F)(F)F (stereo partly drawn) What is its recorded Papp A→B at 2 h, 2 μM?
9.86

Consider the molecule shown here: CC(=O)NC(C(=O)N[C@@H](Cc1ccccc1)C(=O)NCC(C)C)C(C(F)(F)F)C(F)(F)F (stereo partly drawn) What is its recorded Papp A→B at 2 h, 2 μM?
8.38
